Reference source: PubChem BioAssay

target: Nuclear receptor coactivator 3 (Homo sapiens); assay: SRC3 coactivator transcriptional activity inhibitors, confirmation, cell-based, luminescence, quadruplicate (AID 588792); settings: HEK293 GAL4-SRC3 luciferase reporter, at 3.6 µM, active compounds read high;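 also: 0% = DMSO treated cells and 100% = gossypol at 36 µM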
inhibition values for the compounds below.
MEASURED ATTRIBUTE: inhibition (%)

[
  {
    "COMPOUND": "CC1CCc2c(sc(NC(=O)c3cccs3)c2C(=O)O)C1 (stereo unspecified)",
    "MEASURED ATTRIBUTE": "inhibition",
    "VALUE UNIT": "%",
    "READOUT VALUE": 33.8
  },
  {
    "COMPOUND": "COc1ccc(C[C@H](N)C(=O)N[C@H]2[C@@H](O)[C@H](n3cnc4c(N(C)C)ncnc43)O[C@@H]2CO)cc1",
    "MEASURED ATTRIBUTE": "inhibition",
    "VALUE UNIT": "%",
    "READOUT VALUE": 97
  },
  {
    "COMPOUND": "CN1CCN(c2ccc(NC(=O)N3CCc4ccccc43)cc2)CC1",
    "MEASURED ATTRIBUTE": "inhibition",
    "VALUE UNIT": "%",
    "READOUT VALUE": 32.5
  },
  {
    "COMPOUND": "Cc1nn(C(C)(C)C)c(C)c1/C=N/OC(=O)Nc1ccc(Cl)cc1",
    "MEASURED ATTRIBUTE": "inhibition",
    "VALUE UNIT": "%",
    "READOUT VALUE": 94
  },
  {
    "COMPOUND": "CC1CC2=C(CC1/C=N/NC(N)=S)C(C)(C)CCC2 (stereo unspecified)",
    "MEASURED ATTRIBUTE": "inhibition",
    "VALUE UNIT": "%",
    "READOUT VALUE": 50.9
  },
  {
    "COMPOUND": "COC(=O)c1cc(O)cc(OC)c1Oc1cc(C)cc(O)c1C(=O)O",
    "MEASURED ATTRIBUTE": "inhibition",
    "VALUE UNIT": "%",
    "READOUT VALUE": 13.8
  },
  {
    "COMPOUND": "COc1ccc2cc3c(N)nn(C(=O)c4ccc(F)cc4)c3nc2c1",
    "MEASURED ATTRIBUTE": "inhibition",
    "VALUE UNIT": "%",
    "READOUT VALUE": 69.8
  },
  {
    "COMPOUND": "CN(C(=O)OC(C)(C)C)c1ccc(-c2nc3ccccc3s2)cc1",
    "MEASURED ATTRIBUTE": "inhibition",
    "VALUE UNIT": "%",
    "READOUT VALUE": 87.1
  },
  {
    "COMPOUND": "Cn1cnc([N+](=O)[O-])c1Sc1nc(N)nc2c1ncn2C1OC(CO)C(O)C1O (stereo unspecified)",
    "MEASURED ATTRIBUTE": "inhibition",
    "VALUE UNIT": "%",
    "READOUT VALUE": 43.8
  },
  {
    "COMPOUND": "Cc1cc(C)c(C#N)c(SCc2nnc(-c3ccccc3)o2)n1",
    "MEASURED ATTRIBUTE": "inhibition",
    "VALUE UNIT": "%",
    "READOUT VALUE": 66.3
  },
  {
    "COMPOUND": "Cc1noc(C)c1COC(=O)c1cc(F)c(F)cc1Cl",
    "MEASURED ATTRIBUTE": "inhibition",
    "VALUE UNIT": "%",
    "READOUT VALUE": 2.84
  },
  {
    "COMPOUND": "CC(C)(C)c1ccc(Oc2ccc(N)cc2)cc1",
    "MEASURED ATTRIBUTE": "inhibition",
    "VALUE UNIT": "%",
    "READOUT VALUE": 68.3
  },
  {
    "COMPOUND": "COc1ccc(CCNC(=O)c2nnn(-c3ccc4c(c3)OCCO4)c2N)cc1OC",
    "MEASURED ATTRIBUTE": "inhibition",
    "VALUE UNIT": "%",
    "READOUT VALUE": 31.7
  },
  {
    "COMPOUND": "COc1ccc(N(C(=O)CCl)C(C(=O)NC2CCCCC2)c2cccnc2)cc1 (stereo unspecified)",
    "MEASURED ATTRIBUTE": "inhibition",
    "VALUE UNIT": "%",
    "READOUT VALUE": 75.7
  },
  {
    "COMPOUND": "CNC1=C(N(C(C)=O)c2ccc(Br)cc2)C(=O)c2ccccc2C1=O",
    "MEASURED ATTRIBUTE": "inhibition",
    "VALUE UNIT": "%",
    "READOUT VALUE": 82.4
  },
  {
    "COMPOUND": "CC1=C/C(=N\\OS(=O)(=O)c2ccccc2)C(C)=CC1=O",
    "MEASURED ATTRIBUTE": "inhibition",
    "VALUE UNIT": "%",
    "READOUT VALUE": 19.7
  },
  {
    "COMPOUND": "O=C(c1ccncc1)N(Cc1cc2ccccc2[nH]c1=O)C1CCCCC1",
    "MEASURED ATTRIBUTE": "inhibition",
    "VALUE UNIT": "%",
    "READOUT VALUE": 40.7
  },
  {
    "COMPOUND": "O=C(CCl)N1N=C(c2ccco2)CC1c1cccs1 (stereo unspecified)",
    "MEASURED ATTRIBUTE": "inhibition",
    "VALUE UNIT": "%",
    "READOUT VALUE": 55.1
  },
  {
    "COMPOUND": "O=C(Nc1ccccc1)NN(C(=O)CCl)c1ccccc1",
    "MEASURED ATTRIBUTE": "inhibition",
    "VALUE UNIT": "%",
    "READOUT VALUE": -0.31
  },
  {
    "COMPOUND": "COc1ccc(-c2csc(NC(=O)c3ccc(S(=O)(=O)N4CCc5ccccc5C4)cc3)n2)cc1",
    "MEASURED ATTRIBUTE": "inhibition",
    "VALUE UNIT": "%",
    "READOUT VALUE": 25.1
  },
  {
    "COMPOUND": "Cc1c(/C(O)=C2\\C(=O)C(=O)N(CCN(C)C)C2c2ccccc2)cnn1-c1ccccc1 (stereo unspecified)",
    "MEASURED ATTRIBUTE": "inhibition",
    "VALUE UNIT": "%",
    "READOUT VALUE": 15.8
  }
]

###

molecular target: Receptor-interacting serine/threonine-protein kinase 2 (Homo sapiens); test: NOD2-RIPK2 binding disruptors, retest, confirmation, fluorescence, CHO cells, BLA complementation, triplicate (AID 624370); conditions: CCF4 FRET, at 4.98 µM, active compounds read high;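 also: 0% = DMSO-only wells and the high end = clavulanate BLA-blocked wells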
The list shows a part of the results.

[
  {
    "MOLECULE": "COC(=O)Cc1cc(=O)oc2c(C)c(O)ccc12",
    "inhibition / %": 23.8
  },
  {
    "MOLECULE": "O=C1CC(C(F)(F)C(F)(F)C(F)(F)C(F)(F)F)=Nc2ccccc2N1",
    "inhibition / %": -1.13
  },
  {
    "MOLECULE": "CCCc1ccc(-c2csc(NC(=O)Cc3cccs3)n2)cc1",
    "inhibition / %": 32.7
  },
  {
    "MOLECULE": "Cc1ccc(NC(=O)Cn2sc3ccccc3c2=O)cc1",
    "inhibition / %": 33.2
  },
  {
    "MOLECULE": "COc1ccc(NC(=O)C(c2ccncc2)n2c(=O)c(-c3cc4ccccc4[nH]3)nc3ccccc32)cc1 (stereo not drawn)",
    "inhibition / %": 39.5
  },
  {
    "MOLECULE": "O=C(/C=C/c1ccc(Cl)c([N+](=O)[O-])c1)c1ccc(O)cc1",
    "inhibition / %": 31.7
  },
  {
    "MOLECULE": "Cc1cc2oc3ccc(NCCC4CCCN4C)cc3c(=O)c2cc1C (stereo not drawn)",
    "inhibition / %": 42.8
  },
  {
    "MOLECULE": "COc1ccc(-c2cc(C(F)(F)F)nc(S(C)(=O)=O)n2)cc1OC",
    "inhibition / %": 42.1
  },
  {
    "MOLECULE": "O=C(Cc1csc(Nc2nc(=S)[nH]c3ccccc23)n1)NCCCN1CCN(c2cccc(Cl)c2)CC1",
    "inhibition / %": 38
  },
  {
    "MOLECULE": "O[C@H]1C[C@H](c2ccc(Cl)cc2)N(Cc2cccs2)C[C@@H]1n1cc(C2CC2)nn1",
    "inhibition / %": -0.97
  },
  {
    "MOLECULE": "COc1ccccc1CSc1ncc(-c2ccc([N+](=O)[O-])cc2)[nH]1",
    "inhibition / %": 28.2
  },
  {
    "MOLECULE": "COc1ccc(C2=CC(c3cccc(OC)c3)n3nnnc3N2)cc1 (stereo not drawn)",
    "inhibition / %": 3.71
  },
  {
    "MOLECULE": "O=C(NN=Cc1ccc(N2CCOCC2)cc1)c1cc2ccccc2cc1O",
    "inhibition / %": 0.56
  }
]
